- system_name: CDK7/CyclinH/MAT1 (Homo sapiens (Human))
- experiment_notes: CDK7/CyclinH/MAT1 kinase inhibitory activity (Caliper mobility shift)
pIC50: −log10 of the molar value.
Parameter: pIC50. Scope: all listed entries.

>  <molecule>
Cn1cc(S(=O)(=O)N2CCC(Nc3ncc(C(F)(F)F)c(OC4CCOCC4(C)O)n3)CC2)cn1 (single isomer, unassigned) [Example 125b]

>  <system_name>
CDK7/CyclinH/MAT1 (Homo sapiens (Human))

>  <pIC50>
6.00 to 7.00

$$$$
>  <molecule>
NS(=O)(=O)c1ccc(Nc2ncc(C(F)(F)F)c(OC3CCCCCC3O)n2)cc1 (single isomer, unassigned) [Example 118a]

>  <system_name>
CDK7/CyclinH/MAT1 (Homo sapiens (Human))

>  <pIC50>
6.00 to 7.00

$$$$
>  <molecule>
Cc1cnc(Nc2ccc(S(=O)(=O)NC3CC3)cc2)nc1OC1CCCC1O (single isomer, unassigned) [Example 146a]

>  <system_name>
CDK7/CyclinH/MAT1 (Homo sapiens (Human))

>  <pIC50>
≤ 6.00

$$$$
>  <molecule>
N#Cc1cnc(Nc2ccc(S(N)(=O)=O)cc2)nc1-c1cccc(C2CC2)c1 [Example 96]

>  <system_name>
CDK7/CyclinH/MAT1 (Homo sapiens (Human))

>  <pIC50>
≤ 6.00

$$$$

Need pIC50 of CC1CCCC(O)C1Oc1nc(Nc2ccc(S(N)(=O)=O)cc2)ncc1C(F)(F)F (single isomer, unassigned) [Example 112a] , thanks.
≤ 6.00

====

- system_name: CDK7/CyclinH/MAT1 (Homo sapiens (Human), UniProt P50613)
- Sequence (P50613 whole entry): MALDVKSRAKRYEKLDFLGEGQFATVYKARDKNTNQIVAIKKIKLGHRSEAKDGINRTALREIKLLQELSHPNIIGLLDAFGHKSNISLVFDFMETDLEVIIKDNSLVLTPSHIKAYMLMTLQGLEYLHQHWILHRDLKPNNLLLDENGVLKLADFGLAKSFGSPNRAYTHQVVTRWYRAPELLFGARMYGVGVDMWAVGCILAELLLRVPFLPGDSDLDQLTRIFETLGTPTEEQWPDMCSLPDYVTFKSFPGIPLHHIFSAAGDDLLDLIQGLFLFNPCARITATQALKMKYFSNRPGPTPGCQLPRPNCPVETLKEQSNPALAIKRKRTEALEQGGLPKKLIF
- Sequence (P51946 whole entry partner): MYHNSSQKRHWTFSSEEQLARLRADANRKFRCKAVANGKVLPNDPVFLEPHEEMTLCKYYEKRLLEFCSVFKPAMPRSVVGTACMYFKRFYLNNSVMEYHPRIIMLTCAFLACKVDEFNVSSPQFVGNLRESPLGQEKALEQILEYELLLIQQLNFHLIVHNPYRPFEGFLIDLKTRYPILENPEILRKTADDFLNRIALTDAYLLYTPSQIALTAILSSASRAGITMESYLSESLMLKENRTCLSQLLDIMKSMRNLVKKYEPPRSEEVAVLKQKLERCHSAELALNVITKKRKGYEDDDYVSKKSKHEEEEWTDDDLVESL
- Sequence (P51948 whole entry partner): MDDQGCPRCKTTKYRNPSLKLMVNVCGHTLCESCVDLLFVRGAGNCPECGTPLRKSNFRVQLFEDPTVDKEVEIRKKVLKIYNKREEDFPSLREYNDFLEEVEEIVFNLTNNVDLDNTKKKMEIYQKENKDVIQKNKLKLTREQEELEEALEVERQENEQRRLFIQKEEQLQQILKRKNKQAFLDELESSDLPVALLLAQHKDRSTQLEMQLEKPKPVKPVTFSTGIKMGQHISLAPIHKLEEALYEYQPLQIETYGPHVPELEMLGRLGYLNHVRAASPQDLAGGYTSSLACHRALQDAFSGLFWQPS
- experiment_notes: CDK7/CyclinH/MAT1 kinase inhibitory activity (Caliper mobility shift)
outcome_measure: IC50

>  <compound>
CS(=O)(=O)N1CCC(Nc2ncc(C(F)(F)F)c(OC3CCC3)n2)CC1 [Example 126]

>  <system_name>
CDK7/CyclinH/MAT1 (Homo sapiens (Human), UniProt P50613)

>  <outcome_measure>
IC50

>  <observed>
100 to 1000 nM

$$$$
>  <compound>
N#Cc1cnc(Nc2ccc(S(=O)(=O)NC3CC(F)C3)cc2)nc1OC1CCCCC1O (single isomer, unassigned) [Example 31a]

>  <system_name>
CDK7/CyclinH/MAT1 (Homo sapiens (Human), UniProt P50613)

>  <outcome_measure>
IC50

>  <observed>
≥ 1000 nM

$$$$
>  <compound>
N#Cc1cnc(Nc2ccc(S(N)(=O)=O)cc2)nc1OC1CCCC1 [Example 10]

>  <system_name>
CDK7/CyclinH/MAT1 (Homo sapiens (Human), UniProt P50613)

>  <outcome_measure>
IC50

>  <observed>
100 to 1000 nM

$$$$
>  <compound>
CC1(O)CC(F)(F)CCC1Oc1nc(NC2CCN(S(C)(=O)=O)CC2)ncc1C#N (single isomer, unassigned) [Example 47b]

>  <system_name>
CDK7/CyclinH/MAT1 (Homo sapiens (Human), UniProt P50613)

>  <outcome_measure>
IC50

>  <observed>
≥ 1000 nM

$$$$
>  <compound>
CNS(=O)(=O)c1ccc(Nc2ncc(Cl)c(OC3CCCC3O)n2)cc1 (single isomer, unassigned) [Example 137a]

>  <system_name>
CDK7/CyclinH/MAT1 (Homo sapiens (Human), UniProt P50613)

>  <outcome_measure>
IC50

>  <observed>
100 to 1000 nM

$$$$

Tell me the measured IC50 of N#Cc1cnc(Nc2ccc(S(N)(=O)=O)cc2)nc1-c1ccccc1 [Example 93] , please.
≥ 1000 nM

Please report the recorded IC50 for N#Cc1cnc(Nc2ccc(S(N)(=O)=O)cc2)nc1N1CCCCC1 [Example 65] .
≥ 1000 nM

For the compound CC(C)NS(=O)(=O)c1ccc(Nc2ncc(C#N)c(OC3CCCC3(C)O)n2)cc1 (single isomer, unassigned) [Example 35a] , what IC50 is on record?
10 to 100 nM

GET /values?readout=IC50&item= Cn1ccc(S(=O)(=O)N2CCC(Nc3ncc(C#N)c(OCC4(C)CCCC4)n3)CC2)n1 [Example 63]
100 to 1000 nM

Dear colleague, I am looking for the recorded IC50 of the following compound: Cc1cccc(-c2nc(Nc3ccc(S(N)(=O)=O)cc3)ncc2C#N)c1 [Example 94]
≥ 1000 nM

Could you share which IC50 value was measured for CO[C@H]1C[C@](C)(COc2nc(NC3CCN(S(=O)(=O)c4cnn(C)c4)CC3)ncc2C#N)C1 [Example 64a] ?
100 to 1000 nM

# input compound: N#Cc1cnc(Nc2ccc(S(N)(=O)=O)cc2)nc1OC1CCCCCC1O (single isomer, unassigned) [Example 22a] ; wanted: its IC50
≥ 1000 nM

What does the record list as IC50 for CNS(=O)(=O)N1CCC(Nc2ncc(C(F)(F)F)c(OC3CCCCCC3)n2)CC1 [Example 129] ?
≥ 1000 nM

Value lookup for IC50; key = N#Cc1cnc(Nc2ccc(S(N)(=O)=O)cc2)nc1N1CCCC(c2ccccc2)C1 (single isomer, unassigned) [Example 85]
100 to 1000 nM

May I ask what IC50 has been recorded for N#Cc1cnc(Nc2ccc(S(N)(=O)=O)cc2)nc1-c1cccc(F)c1 [Example 95] ?
≥ 1000 nM

Given the entry CNS(=O)(=O)c1ccc(Nc2ncc(Br)c(OC3CCCC3O)n2)cc1 (single isomer, unassigned) [Example 142a] , report its measured IC50.
100 to 1000 nM

Would you mind telling me what IC50 value was observed for CC1(COc2nc(NC3CCN(S(C)(=O)=O)CC3)ncc2C(F)(F)F)CCCC1 [Example 128] ?
≥ 1000 nM

====

- system_name: CDK7/CyclinH/MAT1 (Homo sapiens (Human), UniProt P50613)
- experiment_notes: CDK7/CyclinH/MAT1 kinase inhibitory activity (Caliper mobility shift)
pIC50: −log10 of the molar value.
Each record here notes measured pIC50.

Consider the worked cases shown below.
>  <molecule>
N#Cc1cnc(Nc2ccc(S(N)(=O)=O)cc2)nc1N1CCC[C@H](F)C1 [Example 81]

>  <pIC50>
≤ 6.00

$$$$
>  <molecule>
Cn1cc(S(=O)(=O)N2CCC(Nc3ncc(C#N)c(O[C@@H]4CCC(F)(F)C[C@]4(C)O)n3)CC2)cn1 (relative stereo) [Example 7b]

>  <pIC50>
≤ 6.00

$$$$
>  <molecule>
N#Cc1cnc(Nc2ccc(S(N)(=O)=O)cc2)nc1OCC1CCCC1 [Example 1]

>  <pIC50>
≤ 6.00

$$$$
>  <molecule>
COCCS(=O)(=O)N1CCC(Nc2ncc(C#N)c(OCC3(C)CCCC3)n2)CC1 [Example 58]

>  <pIC50>
6.00 to 7.00

$$$$
>  <molecule>
CC1(COc2nc(NC3CCN(S(C)(=O)=O)CC3)ncc2C#N)CCCC1 [Example 54]

>  <pIC50>
6.00 to 7.00

$$$$

Can you look up the measured pIC50 of CN1CCC(NS(=O)(=O)c2ccc(Nc3ncc(Cl)c(OC4CCCC4O)n3)cc2)CC1 (single isomer, unassigned) [Example 139a] for me?
6.00 to 7.00

Item under review: CS(=O)(=O)N1CCC(Nc2ncc(C(F)(F)F)c(OC3CCCCCC3O)n2)CC1 (single isomer, unassigned) [Example 121a] . Reported pIC50?
7.00 to 8.00

Fill in the blank: the reported pIC50 of N#Cc1cnc(Nc2ccc(S(N)(=O)=O)cc2)nc1N1CCC(O)CC1 [Example 82] is ____.
≤ 6.00

Given CC1(O)CCCC1Oc1nc(NC2CCN(S(=O)(=O)CC(F)(F)F)CC2)ncc1C#N (single isomer, unassigned) [Example 43a] , state its recorded pIC50.
6.00 to 7.00

Which value of pIC50 has been reported for CC1(O)CCCC1Oc1nc(NC2CCN(S(=O)(=O)CF)CC2)ncc1C#N (single isomer, unassigned) [Example 37a] in the records?
7.00 to 8.00

====

- system_name: CDK9/CyclinT1 (Homo sapiens (Human), UniProt P50750)
- Sequence (P50750 whole entry): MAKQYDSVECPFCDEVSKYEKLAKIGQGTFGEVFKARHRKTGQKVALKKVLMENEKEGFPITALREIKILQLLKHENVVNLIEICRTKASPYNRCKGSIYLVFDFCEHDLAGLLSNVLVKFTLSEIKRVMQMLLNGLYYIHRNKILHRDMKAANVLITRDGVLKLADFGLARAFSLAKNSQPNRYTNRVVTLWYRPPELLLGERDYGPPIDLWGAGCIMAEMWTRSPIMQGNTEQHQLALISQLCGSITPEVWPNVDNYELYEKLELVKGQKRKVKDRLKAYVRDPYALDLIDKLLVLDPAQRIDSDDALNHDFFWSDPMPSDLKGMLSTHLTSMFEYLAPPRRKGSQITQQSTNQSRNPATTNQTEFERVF
- Sequence (O60563 whole entry partner): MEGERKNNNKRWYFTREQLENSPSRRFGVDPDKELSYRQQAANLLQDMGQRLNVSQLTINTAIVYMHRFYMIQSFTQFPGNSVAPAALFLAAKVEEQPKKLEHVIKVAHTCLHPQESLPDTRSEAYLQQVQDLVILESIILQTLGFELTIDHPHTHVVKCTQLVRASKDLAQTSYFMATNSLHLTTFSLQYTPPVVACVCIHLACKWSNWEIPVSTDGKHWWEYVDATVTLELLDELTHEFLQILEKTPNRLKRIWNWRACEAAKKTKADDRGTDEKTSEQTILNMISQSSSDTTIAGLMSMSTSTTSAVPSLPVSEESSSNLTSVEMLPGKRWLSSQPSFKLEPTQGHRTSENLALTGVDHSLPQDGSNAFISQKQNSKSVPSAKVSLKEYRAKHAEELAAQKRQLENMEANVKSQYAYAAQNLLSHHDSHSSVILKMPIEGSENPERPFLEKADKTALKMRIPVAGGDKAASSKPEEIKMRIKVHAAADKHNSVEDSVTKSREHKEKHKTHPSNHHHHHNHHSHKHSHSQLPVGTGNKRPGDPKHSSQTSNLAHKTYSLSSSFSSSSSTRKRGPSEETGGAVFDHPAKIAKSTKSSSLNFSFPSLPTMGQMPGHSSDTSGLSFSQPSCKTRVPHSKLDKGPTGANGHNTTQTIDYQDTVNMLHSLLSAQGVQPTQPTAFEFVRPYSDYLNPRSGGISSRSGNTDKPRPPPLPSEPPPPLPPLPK
- experiment_notes: CDK9/CyclinT1 kinase inhibitory activity (Caliper mobility shift)
- condition_summary: read-out: CDK9/Cyclin T1 IC50
pIC50: −log10 of the molar value.
outcome_measure: pIC50

Record excerpt, results attached:
>  <compound>
NS(=O)(=O)c1ccc(Nc2ncc(Br)c(OC3CCCC3O)n2)cc1 (single isomer, unassigned) [Example 141b]

>  <observed>
6.00 to 7.00

$$$$
>  <compound>
CC1(O)CC(F)(F)CC1Oc1nc(NC2CCN(S(=O)(=O)CC3CC3)CC2)ncc1C#N (single isomer, unassigned) [Example 44b]

>  <observed>
6.00 to 7.00

$$$$
>  <compound>
N#Cc1cnc(Nc2ccc(S(=O)(=O)NC3CCC3)cc2)nc1OC1CCC[C@H]1O (mixture of isomers)

>  <observed>
6.00 to 7.00

$$$$
>  <compound>
CNS(=O)(=O)c1ccc(Nc2ncc(Br)c(OC3CCCC3O)n2)cc1 (single isomer, unassigned) [Example 142a]

>  <observed>
6.00 to 7.00

$$$$
>  <compound>
[2H]C([2H])([2H])NS(=O)(=O)c1ccc(Nc2ncc(C(F)(F)F)c(OC3COCCC3O)n2)cc1 (single isomer, unassigned) [Example 117a]

>  <observed>
6.00 to 7.00

$$$$
>  <compound>
C[C@H]1CCCN(c2nc(Nc3ccc(S(N)(=O)=O)cc3)ncc2C#N)C1

>  <observed>
7.00 to 8.00

$$$$

For the compound shown here, [2H]C([2H])([2H])NS(=O)(=O)c1ccc(Nc2ncc(CC)c(OC3CCOCC3O)n2)cc1 (single isomer, unassigned) [Example 151b] , give the reported pIC50.
≤ 6.00

Look up pIC50 for this compound: C[C@H]1CCCCN1c1nc(Nc2ccc(S(N)(=O)=O)cc2)ncc1C#N
6.00 to 7.00

// lookup pIC50 for NS(=O)(=O)c1ccc(Nc2ncc(C(F)(F)F)c(OC3CCOCC3O)n2)cc1 (single isomer, unassigned) [Example 114b]
6.00 to 7.00

State the recorded pIC50 for this entry: CN1CCC(NS(=O)(=O)c2ccc(Nc3ncc(Cl)c(OC4CCCC4O)n3)cc2)CC1 (single isomer, unassigned) [Example 139b]
≤ 6.00
